ASSAY COMMENT: Water solubility of lestaurtinib
Type: physicochemical
REPORTED CONDITIONS: at 22° C.
PARAMETER: solubility

Problem: What value of solubility has been recorded for this entry: "C[C@]12O[C@H](C[C@]1(O)CO)n1c3ccccc3c3c4c(c5c6ccccc6n2c5c31)CNC4=O"
Solution: 1.7 µg/mL
